Documented IC50 across a set of compounds
System: MCF-10A cells
Experiment: MTT assay of metabolic activity, MCF-10A
Assay type: cell-based, human
Report only the number, with the unit µM understood.

compound: CCC[CH2][Sn]([Cl])([CH2]CCC)[CH2]CCC [TBT-Cl, tributyltin chloride]
unitTag: µM
quantitativeReadout: 1.22

// next item, IC50 requested
Ask | I am curious: what IC50 value has been reported for CCC[CH2][Sn]([CH2]CCC)([CH2]CCC)[O][Sn]([CH2]CCC)([CH2]CCC)[CH2]CCC [TBT-O, bis(tributyltin) oxide] ?
Reply | 4.93

---

Tested on: CAL-27 cells
Assay: MTT assay of metabolic activity, CAL-27
Type: cell-based, human
Documented pIC50 across a set of compounds
A value of pIC50 is the negative decimal logarithm of a concentration given in moles per litre.

compound: CCC[CH2][Sn]([Cl])([CH2]CCC)[CH2]CCC [TBT-Cl, tributyltin chloride]
measuredQuantity: pIC50
quantitativeReadout: 6.04

// next item, pIC50 requested
Ask | I am curious: what pIC50 value has been reported for CCC[CH2][Sn]([CH2]CCC)([CH2]CCC)[O][Sn]([CH2]CCC)([CH2]CCC)[CH2]CCC [TBT-O, bis(tributyltin) oxide] ?
Reply | 4.88

---

Test system: MCF-10A cells
Test: MTT assay of metabolic activity, MCF-10A
Format: cell-based, human
Settings: 24 h, ± SD, three experiments in triplicate
measuredQuantity: pIC50
A value of pIC50 is the negative decimal logarithm of a concentration given in moles per litre.

Ask | I am curious: what pIC50 value has been reported for N.N.[Cl][Pt][Cl] [Cisplatin, cis-diaminedichloroplatinum (II)] ?
Reply | 4.67
